tested_on: CYP3A4 (Homo sapiens, UniProt P08684)
Construct: from tissue; host or cells: human liver microsomes
Sequence (P08684 whole entry): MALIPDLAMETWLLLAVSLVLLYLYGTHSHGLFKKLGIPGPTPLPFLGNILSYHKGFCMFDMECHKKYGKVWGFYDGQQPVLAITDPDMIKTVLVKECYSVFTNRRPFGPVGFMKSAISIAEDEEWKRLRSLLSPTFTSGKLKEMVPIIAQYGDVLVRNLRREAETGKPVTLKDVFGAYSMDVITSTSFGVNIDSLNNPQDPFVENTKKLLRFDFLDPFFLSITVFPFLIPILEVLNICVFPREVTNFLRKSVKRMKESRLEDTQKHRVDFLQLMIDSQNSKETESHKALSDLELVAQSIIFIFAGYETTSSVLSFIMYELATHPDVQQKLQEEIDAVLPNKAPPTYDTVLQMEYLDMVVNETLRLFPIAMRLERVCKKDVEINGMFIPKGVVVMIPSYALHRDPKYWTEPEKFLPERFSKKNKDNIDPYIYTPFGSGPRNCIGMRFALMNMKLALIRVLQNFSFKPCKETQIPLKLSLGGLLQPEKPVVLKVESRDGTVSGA
experiment: CYP profiling: human liver microsomes with CYP3A4 inhibitor ketoconazole
Assay type: in vitro ADME
Set-up: concentration or dose not given beside the values
condition_info: HLMs
parameter_measured: % Compound Metabolized at 30 min, CYP3A4 Inhibitor

Can you look up the measured % Compound Metabolized at 30 min, CYP3A4 Inhibitor of CC(C)(O)c1csc(C(=O)c2c[nH]c3cc(F)ccc23)n1 for me?
27%

Item under review: O=C(c1nc([C@@H](O)C(F)(F)F)cs1)c1c[nH]c2cc(F)ccc12 . Reported % Compound Metabolized at 30 min, CYP3A4 Inhibitor?
59%

Would you mind telling me what % Compound Metabolized at 30 min, CYP3A4 Inhibitor value was observed for O=C(c1nc([C@H](O)C(F)(F)F)cs1)c1c[nH]c2cc(F)ccc12 ?
24%

Query: % Compound Metabolized at 30 min, CYP3A4 Inhibitor; subject: N[C@H](c1csc(C(=O)c2c[nH]c3ccccc23)n1)C(F)(F)F
75%

Using the record for N[C@@H](c1csc(C(=O)c2c[nH]c3cc(F)ccc23)n1)C(F)(F)F , report its % Compound Metabolized at 30 min, CYP3A4 Inhibitor.
8%

Reported % Compound Metabolized at 30 min, CYP3A4 Inhibitor for N[C@H](c1csc(C(=O)c2c[nH]c3cc(F)ccc23)n1)C(F)(F)F : what is it?
42%

Name the recorded % Compound Metabolized at 30 min, CYP3A4 Inhibitor for NC(c1csc(C(=O)c2c[nH]c3ccccc23)n1)C(F)(F)F (stereo not drawn) .
8%

May I ask what % Compound Metabolized at 30 min, CYP3A4 Inhibitor has been recorded for N[C@@H](c1csc(C(=O)c2c[nH]c3ccccc23)n1)C(F)(F)F ?
0%

I'd like to know its % Compound Metabolized at 30 min, CYP3A4 Inhibitor. The molecule in question is NC1(c2csc(C(=O)c3c[nH]c4cc(F)ccc34)n2)CC1
29%
